TESTED_SYSTEM: beta-klotho
TEST_NAME: cell-based or functional assay
MEASUREMENT_LABEL: EC50, ELK-luciferase assay (µM)
All answers are understood in µM, so give the number only.

For orientation, consider the following solved cases.
{"BINDER": "dually PEGylated FGF21 mutant E37C, R175C, P171G (ligand, 20 kDa methoxy-PEG-maleimide on Cys 37 and on Cys 175) MHPIPDSSPLLQFGGQVRQRYLYTDDAQQTEAHLEIRCDGTVGGAADQSPESLLQLKALKPGVIQILGVKTSRFLCQRPDGALYGSLHFDPEACSFRELLLEDGYNVYQSEAHGLPLHLPGNKSPHRDPAPRGPARFLPLPGLPPAPPEPPGILAPQPPDVGSSDPLSMVGGSQGCSPSYAS", "MEASUREMENT_UNIT": "µM", "NUMERIC_READOUT": 0.162}
{"BINDER": "dually PEGylated FGF21 mutant E37C, E91C, P171G (ligand, 20 kDa methoxy-PEG-maleimide on Cys 37 and on Cys 91) MHPIPDSSPLLQFGGQVRQRYLYTDDAQQTEAHLEIRCDGTVGGAADQSPESLLQLKALKPGVIQILGVKTSRFLCQRPDGALYGSLHFDPCACSFRELLLEDGYNVYQSEAHGLPLHLPGNKSPHRDPAPRGPARFLPLPGLPPAPPEPPGILAPQPPDVGSSDPLSMVGGSQGRSPSYAS", "MEASUREMENT_UNIT": "µM", "NUMERIC_READOUT": 0.03}
{"BINDER": "dually PEGylated FGF21 mutant E91C, G120C, P171G (ligand, 20 kDa methoxy-PEG-maleimide on Cys 91 and on Cys 120) MHPIPDSSPLLQFGGQVRQRYLYTDDAQQTEAHLEIREDGTVGGAADQSPESLLQLKALKPGVIQILGVKTSRFLCQRPDGALYGSLHFDPCACSFRELLLEDGYNVYQSEAHGLPLHLPCNKSPHRDPAPRGPARFLPLPGLPPAPPEPPGILAPQPPDVGSSDPLSMVGGSQGRSPSYAS", "MEASUREMENT_UNIT": "µM", "NUMERIC_READOUT": 0.034}

Continue with the binder presented below.
Query block: // fetch EC50, ELK-luciferase assay given entry dually PEGylated FGF21 mutant E37C, H125C, P171G (ligand, 20 kDa methoxy-PEG-maleimide on Cys 37 and on Cys 125) MHPIPDSSPLLQFGGQVRQRYLYTDDAQQTEAHLEIRCDGTVGGAADQSPESLLQLKALKPGVIQILGVKTSRFLCQRPDGALYGSLHFDPEACSFRELLLEDGYNVYQSEAHGLPLHLPGNKSPCRDPAPRGPARFLPLPGLPPAPPEPPGILAPQPPDVGSSDPLSMVGGSQGRSPSYAS
Result block: 0.037
